Target Or Test System: T1, cynomolgus monkey CD19 on peripheral blood B cells (cynomolgus monkey (Macaca fascicularis), UniProt A0A2K5W8L9 20-557)
T1 construct: whole, on cells; also called cynomolgus monkey B cells
T1 sequence: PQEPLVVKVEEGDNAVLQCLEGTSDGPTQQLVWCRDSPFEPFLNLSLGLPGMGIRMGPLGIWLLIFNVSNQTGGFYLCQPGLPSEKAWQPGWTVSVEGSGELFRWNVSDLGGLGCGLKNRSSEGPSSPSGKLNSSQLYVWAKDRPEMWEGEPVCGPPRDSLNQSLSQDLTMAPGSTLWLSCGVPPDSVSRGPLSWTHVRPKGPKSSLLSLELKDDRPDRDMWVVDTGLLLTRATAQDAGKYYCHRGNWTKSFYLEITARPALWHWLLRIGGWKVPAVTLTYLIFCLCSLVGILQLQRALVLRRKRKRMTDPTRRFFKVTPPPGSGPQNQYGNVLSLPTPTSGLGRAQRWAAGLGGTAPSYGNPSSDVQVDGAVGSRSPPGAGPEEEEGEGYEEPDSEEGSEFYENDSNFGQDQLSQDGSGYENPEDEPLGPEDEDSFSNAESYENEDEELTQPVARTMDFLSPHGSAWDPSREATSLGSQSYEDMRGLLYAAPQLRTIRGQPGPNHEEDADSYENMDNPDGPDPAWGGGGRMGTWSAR
Experimental Protocol: FACS, cynomolgus PBMC, CD20+ B cells
Protocol: The monkey peripheral blood mononuclear cells were extracted from fresh cynomolgus monkey peripheral blood (purchased from Shanghai Medicilon Inc.) according to the instructions of Ficoll-Paque Plus (purchased from GE Healthcae, catalog number: 171440-02). After the cell suspension was centrifuged, the cells were resuspended in PBS containing 1% BSA, and then the cells were counted. […] The mixture was incubated for 1 h at room temperature. […]
Value Type: Proportion of chimeric antibody positive cells to B cells (%) at 100 nM

So what's the measured Proportion of chimeric antibody positive cells to B cells (%) at 100 nM for this one? F4.21.2 (antibody, human IgG1, V domains shown, human-murine chimeric antibody, human IgG1) VH: QVQLKQSGPGLVQPSQSLSITCTVSGFSLSTYGVHWVRQSPGRGLEWLGVIWIGGTTDYNAAFISRLTISKDNSRGQVFFKMDSLQANDTAIYYCARKGYYKYDGGYYYAMDYWGQGTSVTVSS VL: DIQMTQSSSYLSVSLGGRVTITCKASDHINNWLAWYQQKPGNAPWLLISGATSLETGVPSRFSGSGSGKDYTLSISSLQTEDVATYYCQQYWSTPLTFGAGTKLELK
18%

Then this binder: F5.2.9 (antibody, human IgG1, V domains shown, human-murine chimeric antibody, human IgG1) VH: QVTLKESGPGILQPSQTLSLTCSFSGFSLSTFGLGVGWVRQPSGKGLEWLAHIWWDDDKYYNPALKSRVTVSKETSKNQVFFKIANVDTADSATYYCARLSRGLRRDVVYAMDHWGQGTSVTVSS VL: DIQMTQTTSSLSASLGDRVTISCRASQDISNYLNWYQQKPDGSVKLLISYVSRLQSGVPSRFRGSGSGTDYSLTISNLDQEDIATYFCQQGIAFPYTFGGGTKLDIK
98%
